TGT: Prostaglandin G/H synthase 2 (Homo sapiens, UniProt P35354)
Sequence (P35354 whole entry): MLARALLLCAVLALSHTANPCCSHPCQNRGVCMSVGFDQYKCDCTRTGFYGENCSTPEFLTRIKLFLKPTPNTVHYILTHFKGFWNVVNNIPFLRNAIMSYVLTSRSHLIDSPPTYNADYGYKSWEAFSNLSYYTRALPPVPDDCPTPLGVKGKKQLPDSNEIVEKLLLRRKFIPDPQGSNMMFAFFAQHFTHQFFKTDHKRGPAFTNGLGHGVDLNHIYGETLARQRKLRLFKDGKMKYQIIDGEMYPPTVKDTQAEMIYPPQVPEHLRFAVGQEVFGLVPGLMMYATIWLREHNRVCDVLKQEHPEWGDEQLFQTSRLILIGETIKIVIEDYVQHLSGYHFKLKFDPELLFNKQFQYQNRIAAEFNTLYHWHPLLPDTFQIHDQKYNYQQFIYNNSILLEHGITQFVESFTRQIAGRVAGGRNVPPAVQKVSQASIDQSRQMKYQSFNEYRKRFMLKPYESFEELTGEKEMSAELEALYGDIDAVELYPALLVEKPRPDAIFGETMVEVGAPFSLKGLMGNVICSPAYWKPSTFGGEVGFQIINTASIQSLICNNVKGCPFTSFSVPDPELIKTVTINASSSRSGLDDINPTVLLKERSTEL
PROTOCOL_DETAILS: Inhibition of human recombinant COX2 using arachidonic acid substrate assessed as PGE2 production ELISA method after 2 mins
QUANTITY: pIC50
Entry type: numeric. Quantity: pIC50, the -log10 of concentration in molar units.

Use the examples below as a reference point.
>  <MOLECULE>
CN(C)c1ccc(/C=C2\CNC/C(=C\c3ccc(N(C)C)cc3[N+](=O)[O-])C2=O)c([N+](=O)[O-])c1

>  <TGT>
Prostaglandin G/H synthase 2 (Homo sapiens, UniProt P35354)

>  <QUANTITY>
pIC50

>  <RESULT_VALUE>
5.10

$$$$
>  <MOLECULE>
CN(C)c1ccc(/C=C/C(=O)/C=C/c2ccc(N(C)C)cc2[N+](=O)[O-])c([N+](=O)[O-])c1

>  <TGT>
Prostaglandin G/H synthase 2 (Homo sapiens, UniProt P35354)

>  <QUANTITY>
pIC50

>  <RESULT_VALUE>
4.82

$$$$
>  <MOLECULE>
CCOC(OCC)c1ccc(/C=C2\CCC/C(=C\c3ccc(C(OCC)OCC)cc3)C2=O)cc1

>  <TGT>
Prostaglandin G/H synthase 2 (Homo sapiens, UniProt P35354)

>  <QUANTITY>
pIC50

>  <RESULT_VALUE>
4.76

$$$$

Fill blank: measured pIC50 of the molecule CN(C)c1ccc(/C=C/C(=O)C2CCc3ccccc3C2=O)c([N+](=O)[O-])c1 (stereo not drawn) is ____. 4.42

Fill blank: measured pIC50 of the molecule CCOC(OCC)c1ccc(/C=C2\CC/C(=C\c3ccc(C(OCC)OCC)cc3)C2=O)cc1 is ____. 4.83

Fill blank: measured pIC50 of the molecule O=C(/C=C/c1ccc(N2CCCC2)cc1)C1CCc2ccccc2C1=O (stereo not drawn) is ____. 4.21

Fill blank: measured pIC50 of the molecule O=C1/C(=C/c2ccc(N3CCCC3)cc2)CN(Cc2ccccc2)C/C1=C\c1ccc(N2CCCC2)cc1 is ____. 4.24

Fill blank: measured pIC50 of the molecule CN1C/C(=C\c2ccc(N(C)C)cc2[N+](=O)[O-])C(=O)/C(=C/c2ccc(N(C)C)cc2[N+](=O)[O-])C1 is ____. 5.04

Fill blank: measured pIC50 of the molecule CN(C)c1ccc(/C=C2\COC/C(=C\c3ccc(N(C)C)cc3[N+](=O)[O-])C2=O)c([N+](=O)[O-])c1 is ____. 4.73

Fill blank: measured pIC50 of the molecule CCOC(OCC)c1ccc(/C=C/C(=O)C2CCc3ccccc3C2=O)cc1 (stereo not drawn) is ____. 4.88

Fill blank: measured pIC50 of the molecule CCOC(OCC)c1ccc(/C=C/C(=O)/C=C/c2ccc(C(OCC)OCC)cc2)cc1 is ____. 4.50

Fill blank: measured pIC50 of the molecule CCOC(OCC)c1ccc(/C=C2\CNC/C(=C\c3ccc(C(OCC)OCC)cc3)C2=O)cc1 is ____. 4.56

Fill blank: measured pIC50 of the molecule CCOC(OCC)c1ccc(/C=C2\CN(C)C/C(=C\c3ccc(C(OCC)OCC)cc3)C2=O)cc1 is ____. 4.42

Fill blank: measured pIC50 of the molecule CN(C)c1ccc(/C=C2\CCc3ccccc3C2=O)c([N+](=O)[O-])c1 is ____. 4.55
